- Test system: Escherichia coli TOP10;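 note: peptides expressed intracellularly from a pBAD plasmid library in pooled LB shake-flask culture, induced with 0.3% L-arabinose, DNA abundance read by NGS, three biological replicates, DESeq2 with apeglm shrinkage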
- Assay explanation: shrunken log2 fold change of peptide-encoding DNA abundance (4.5 h post-induction vs induction); higher = less antimicrobial activity (less host growth inhibition)
- Measurement conditions: time post-induction: 4.5 h; library: site-saturation at positions 5, 18, 19, 20
Measurement name: shrunken log2 fold change
Respond with the number and no other words.

What does the data say about its shrunken log2 fold change? Entry: RRIRSRPPRLPRPRPRPCIWPRP
-0.121

What does the data say about its shrunken log2 fold change? Entry: RRIRHRPPRLPRPRPRPHLAPRP
-0.0341

What does the data say about its shrunken log2 fold change? Entry: RRIRCRPPRLPRPRPRPKSGPRP
0.017

What does the data say about its shrunken log2 fold change? Entry: RRIRFRPPRLPRPRPRPNSKPRP
-0.464

What does the data say about its shrunken log2 fold change? Entry: RRIRHRPPRLPRPRPRPHTSPRP
-0.0988

What does the data say about its shrunken log2 fold change? Entry: RRIRGRPPRLPRPRPRPIGSPRP
0.45

What does the data say about its shrunken log2 fold change? Entry: RRIRMRPPRLPRPRPRPFDVPRP
0.268

What does the data say about its shrunken log2 fold change? Entry: RRIRCRPPRLPRPRPRPQEDPRP
-0.0835

What does the data say about its shrunken log2 fold change? Entry: RRIRYRPPRLPRPRPRPDMTPRP
-0.149

What does the data say about its shrunken log2 fold change? Entry: RRIRGRPPRLPRPRPRPEDKPRP
1.23

What does the data say about its shrunken log2 fold change? Entry: RRIRMRPPRLPRPRPRPFLWPRP
0.0175

What does the data say about its shrunken log2 fold change? Entry: RRIRNRPPRLPRPRPRPRFKPRP
0.0387

What does the data say about its shrunken log2 fold change? Entry: RRIRCRPPRLPRPRPRPQSAPRP
-0.0724

What does the data say about its shrunken log2 fold change? Entry: RRIRHRPPRLPRPRPRPIFRPRP
-0.173

What does the data say about its shrunken log2 fold change? Entry: RRIRTRPPRLPRPRPRPNPEPRP
-0.101

What does the data say about its shrunken log2 fold change? Entry: RRIRYRPPRLPRPRPRPNFFPRP
-0.074

What does the data say about its shrunken log2 fold change? Entry: RRIRKRPPRLPRPRPRPASLPRP
-0.23

What does the data say about its shrunken log2 fold change? Entry: RRIRLRPPRLPRPRPRPIWHPRP
-0.0382

What does the data say about its shrunken log2 fold change? Entry: RRIRQRPPRLPRPRPRPKPGPRP
0.285

What does the data say about its shrunken log2 fold change? Entry: RRIRIRPPRLPRPRPRPVDQPRP
-0.0969

What does the data say about its shrunken log2 fold change? Entry: RRIRLRPPRLPRPRPRPSGLPRP
-0.429

What does the data say about its shrunken log2 fold change? Entry: RRIRPRPPRLPRPRPRPVNLPRP
-0.136

What does the data say about its shrunken log2 fold change? Entry: RRIRRRPPRLPRPRPRPRSIPRP
-0.0781

What does the data say about its shrunken log2 fold change? Entry: RRIRWRPPRLPRPRPRPKYKPRP
-0.558

What does the data say about its shrunken log2 fold change? Entry: RRIRVRPPRLPRPRPRPMWRPRP
0.127

What does the data say about its shrunken log2 fold change? Entry: RRIRNRPPRLPRPRPRPSNIPRP
-0.28

What does the data say about its shrunken log2 fold change? Entry: RRIRERPPRLPRPRPRPGSPPRP
-0.0668

What does the data say about its shrunken log2 fold change? Entry: RRIRARPPRLPRPRPRPEHQPRP
0.399

What does the data say about its shrunken log2 fold change? Entry: RRIRWRPPRLPRPRPRPWAMPRP
0.0321

What does the data say about its shrunken log2 fold change? Entry: RRIRTRPPRLPRPRPRPDHSPRP
-0.0596

What does the data say about its shrunken log2 fold change? Entry: RRIRYRPPRLPRPRPRPPINPRP
-0.378

What does the data say about its shrunken log2 fold change? Entry: RRIRRRPPRLPRPRPRPAAKPRP
0.267

What does the data say about its shrunken log2 fold change? Entry: RRIRGRPPRLPRPRPRPRYAPRP
0.399

What does the data say about its shrunken log2 fold change? Entry: RRIRVRPPRLPRPRPRPGKCPRP
0.0804

What does the data say about its shrunken log2 fold change? Entry: RRIRSRPPRLPRPRPRPMSCPRP
-0.067

What does the data say about its shrunken log2 fold change? Entry: RRIRRRPPRLPRPRPRPWPCPRP
0.133

What does the data say about its shrunken log2 fold change? Entry: RRIRPRPPRLPRPRPRPSTLPRP
-0.139

What does the data say about its shrunken log2 fold change? Entry: RRIRARPPRLPRPRPRPNCPPRP
-0.0021

What does the data say about its shrunken log2 fold change? Entry: RRIRWRPPRLPRPRPRPWDKPRP
-0.0732

What does the data say about its shrunken log2 fold change? Entry: RRIRKRPPRLPRPRPRPHADPRP
0.0566

What does the data say about its shrunken log2 fold change? Entry: RRIRCRPPRLPRPRPRPPLHPRP
0.135

What does the data say about its shrunken log2 fold change? Entry: RRIRIRPPRLPRPRPRPLVAPRP
-0.0566

What does the data say about its shrunken log2 fold change? Entry: RRIRFRPPRLPRPRPRPHTWPRP
-0.415

What does the data say about its shrunken log2 fold change? Entry: RRIRYRPPRLPRPRPRPMWHPRP
-0.156

What does the data say about its shrunken log2 fold change? Entry: RRIRCRPPRLPRPRPRPTLGPRP
0.168

What does the data say about its shrunken log2 fold change? Entry: RRIRRRPPRLPRPRPRPRGPPRP
0.871

What does the data say about its shrunken log2 fold change? Entry: RRIRRRPPRLPRPRPRPYEWPRP
0.00618

What does the data say about its shrunken log2 fold change? Entry: RRIRSRPPRLPRPRPRPMNQPRP
-0.0276

What does the data say about its shrunken log2 fold change? Entry: RRIRARPPRLPRPRPRPASEPRP
0.285

What does the data say about its shrunken log2 fold change? Entry: RRIRYRPPRLPRPRPRPCGGPRP
0.00427

What does the data say about its shrunken log2 fold change? Entry: RRIRNRPPRLPRPRPRPFRHPRP
-0.727

What does the data say about its shrunken log2 fold change? Entry: RRIRMRPPRLPRPRPRPQTVPRP
0.291

What does the data say about its shrunken log2 fold change? Entry: RRIRWRPPRLPRPRPRPAKRPRP
-0.0468

What does the data say about its shrunken log2 fold change? Entry: RRIRTRPPRLPRPRPRPYLQPRP
-0.525

What does the data say about its shrunken log2 fold change? Entry: RRIRWRPPRLPRPRPRPICWPRP
0.646

What does the data say about its shrunken log2 fold change? Entry: RRIRQRPPRLPRPRPRPHLYPRP
-0.129

What does the data say about its shrunken log2 fold change? Entry: RRIRCRPPRLPRPRPRPPMMPRP
-0.0549

What does the data say about its shrunken log2 fold change? Entry: RRIRCRPPRLPRPRPRPIMTPRP
-0.00708

What does the data say about its shrunken log2 fold change? Entry: RRIRFRPPRLPRPRPRPFKIPRP
-0.049

What does the data say about its shrunken log2 fold change? Entry: RRIRERPPRLPRPRPRPHPMPRP
-0.334

What does the data say about its shrunken log2 fold change? Entry: RRIRGRPPRLPRPRPRPRGGPRP
1.05

What does the data say about its shrunken log2 fold change? Entry: RRIRERPPRLPRPRPRPQWVPRP
0.0428

What does the data say about its shrunken log2 fold change? Entry: RRIRQRPPRLPRPRPRPQYHPRP
-0.609
